# Tested on: newly emerged larvae of Lucilia sericata, blowfly
# test.details: Efficacy against blowfly larvae, treated paper/serum bioassay
# Format: in vivo
# assay.setup: Conc. 2.0 ppm; 24 h; blowfly larvae
# Experimental: Evaluation of Efficacy of Test Compounds Against Blowfly Larvae The efficacy of a test compound against newly emerged larvae of Lucilia sericata, blowfly, is evaluated using a treated paper/serum bioassay. In this evaluation, a solution of test compound in acetone is applied to a filter paper disc and the disc is allowed to dry. Bovine serum and about 20 newly emerged blowfly larvae are added to the treated paper disc and the mortality is assessed at 24 h and 48 h. The data are averaged.
experimental.endpoint: % Mortality 24 h (%)
# output: bare number, implied unit %

Example entries begin here.
>>> value_reported("CC1(c2nn(-c3c(Cl)cc(Cl)cc3Cl)c(Cl)c2C#N)CC1(Cl)Cl (centres unmarked) [Example 27]")
100
>>> value_reported("CCCOC=Nc1c(C#N)c(C2(C)CC2(Cl)Cl)nn1-c1c(Cl)cc(C(F)(F)F)cc1Cl (racemic) [Example 39]")
70
>>> value_reported("CC1(c2nn(-c3c(Cl)cc(C(F)(F)F)cc3Cl)c(I)c2C#N)CC1(Cl)Cl (centres unmarked) [Example 31]")
95

--- query ---
Value (% Mortality 24 h, newly emerged larvae of Lucilia sericata, blowfly) for record CC1(c2nn(-c3c(Cl)cc(C(F)(F)F)cc3Cl)c(Cl)c2C#N)CC1(Br)Br (centres unmarked) [Example 20] = 100
